// data source = the supplement of paper PMC11208160

For each entry below, report its recombinant UMI read abundance (log10) value.
experiment: recombinant UMI read abundance after kanamycin selection (control-corrected) (log10(CPM+1)); higher = more efficient recombination; extreme values may be limits of the assay; sequences stand for … in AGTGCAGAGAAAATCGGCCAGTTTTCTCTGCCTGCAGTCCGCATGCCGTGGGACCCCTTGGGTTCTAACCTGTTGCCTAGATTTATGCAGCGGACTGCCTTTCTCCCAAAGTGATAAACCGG…AGGTTGGTTTCACT; site = the 11-nt donor
Answers are plain numbers.

Here is how some sequences turned out for recombinant UMI read abundance (log10).
Sequence entry	recombinant UMI read abundance (log10)
AGTTGATCATGGACCGGTTTTCCCGGTAATCCGTATTTGTC (site AGTTGATCTGA)	1.94
CGTTCCCCATGGACCGGTTTTCCCGGTAATCCGTATTTGTA (site CGTTCCCCTTA)	0.531
GCCACCGCATGGACCGGTTTTCCCGGTAATCCGTATTTGCG (site CCCACCGCTCG)	0.0179
CGCATATCATGGACCGGTTTTCCCGGTAATCCGTATTTGTC (site CGCATATCTGA)	1.86
ACTAAAGCATGGACCGGTTTTCCCGGTAATCCGTATTTGAT (site TCTAAAGCTAT)	0.855
ACAGGTCCATGGACCGGTTTTCCCGGTAATCCGTATTTGGC (site ACAGGTCCTGC)	1.02
ACAGTGTCATGGACCGGTTTTCCCGGTAATCCGTATTTGCC (site ACAGTGTCTGG)	2.88
CTATTATCATGGACCGGTTTTCCCGGTAATCCGTATTTGAT (site CTATTATCTAT)	1.18

Quick request: recombinant UMI read abundance (log10) for each listed item, please.
1. GATCGGACATGGACCGGTTTTCCCGGTAATCCGTATTTGAC (site GATCGGACTGT)
2. GAAAGGCCATGGACCGGTTTTCCCGGTAATCCGTATTTGCA (site GAAGGGCCTTG)
3. GAAGAATCATGGACCGGTTTTCCCGGTAATCCGTATTTGTT (site GAAGACTCTAA)
4. CGGGTACCATGGACCGGTTTTCCCGGTAATCCGTATTTGAT (site CGGGCACCTAT)
5. GGTACGTCATGGACCGGTTTTCCCGGTAATCCGTATTTGTT (site GGTACGGCTAA)
6. GGAACGTCATGGACCGGTTTTCCCGGTAATCCGTATTTGTT (site GGAACGTCTAA)
7. CGTAACCCATGGACCGGTTTTCCCGGTAATCCGTATTTGGC (site CGTAACCCTGC)
8. CCGTTAGCATGGACCGGTTTTCCCGGTAATCCGTATTTGTG (site CCGGTAGCTCA)

Result:
1.11
0
1.41
0
0.0154
0.993
0.629
0.014

Please state, for each entry, its recorded recombinant UMI read abundance (log10).
1. GTGGCCTCATGGACCGGTTTTCCCGGTAATCCGTATTTGGA (site GTGGCCTCTTC)
2. CGAGTATCATGGACCGGTTTTCCCGGTAATCCGTATTTGGC (site CTAGTATCTGT)

Result:
1: 1.43; 2: 2.29

Give recombinant UMI read abundance (log10) for all sequences that follow.
1. CCGTTTGCATGGACCGGTTTTCCCGGTAATCCGTATTTGCT (site CCGTTTACTAG)
2. CTTGTTGCATGGACCGGTTTTCCCGGTAATCCGTATTTGGT (site CTTGTTGCTAC)
3. CTGAATTCATGGACCGGTTTTCCCGGTAATCCGTATTTGCC (site CTGAATTCTGG)
4. CGCAGTACATGGACCGGTTTTCCCGGTAATCCGTATTTGCT (site CGCTGTACTAG)
5. GTCTGCCCATGGACCGGTTTTCCCGGTAATCCGTATTTGAG (site GTCTGCCCTCT)

Result:
1: 0; 2: 1.26; 3: 1.06; 4: 0; 5: 0.0162

For each of the sequences below, state recombinant UMI read abundance (log10).
1. TGCCAGGCATGGACCGGTTTTCCCGGTAATCCGTATTTGTC (site TGCCAGGCTGA)
2. CTCCGTGCATGGACCGGTTTTCCCGGTAATCCGTATTTGGC (site CTCCGTGCTGC)
3. CAATTACCATGGACCGGTTTTCCCGGTAATCCGTATTTGCT (site CAATTTCCTAG)
4. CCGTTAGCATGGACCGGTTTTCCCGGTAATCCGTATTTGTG (site CCGTTATCTCA)
5. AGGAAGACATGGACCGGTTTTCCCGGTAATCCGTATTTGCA (site AGCAAGACTAG)
6. CGAGAACCATGGACCGGTTTTCCCGGTAATCCGTATTTGAT (site CGCGAACCTAT)
7. AGGACTACATGGACCGGTTTTCCCGGTAATCCGTATTTGAT (site AGGACTACTGT)

Result:
[0, 1.87, 0, 0, 0.0137, 0, 0]

###

test: recombinant barcode read abundance after kanamycin selection (control-corrected) (log10(CPM+1)); higher = more efficient recombination; sequences stand for … in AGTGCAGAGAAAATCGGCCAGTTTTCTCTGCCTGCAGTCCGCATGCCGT…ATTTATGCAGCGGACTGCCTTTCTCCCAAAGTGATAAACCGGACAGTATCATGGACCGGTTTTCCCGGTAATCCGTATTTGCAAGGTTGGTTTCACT; site = the 11-nt target
recombinant barcode read abundance (log10) below 0.07 gives no (0); recombinant barcode read abundance (log10) at or above it gives yes (1).

Worked examples follow.
Sequence entry	Answer label
GGTGCCCCTTGGGTTCTAACCTGTTGCCGAT [GGTGCCCCTCG_LTGcore_CT_RTGcore_AT] (site GGTGCCCCTCG) (LTG core: CT, RTG core: AT)	yes (1)
GAGCCCAGCTGGGTTCTAACCTGTTGCCTGC [GAGCCCACTAG_LTGcore_GC_RTGcore_GC] (site GAGCCCACTAG) (LTG core: GC, RTG core: GC)	no (0)
GGGAGCCGATGGGTTCTAACCTGTTGCTGTC [GGGAGCCCTCA_LTGcore_GA_RTGcore_GA] (site GGGAGCCCTCA) (LTG core: GA, RTG core: GA)	yes (1)

Ask: Has AGGAGGTCTTGGGTTCTAACCTGTTGCCTTT [AGGAGGTCTAG_LTGcore_CT_RTGcore_AA] (site AGGAGGTCTAG) (LTG core: CT, RTG core: AA) a recorded recombinant barcode read abundance (log10) greater than or equal to 0.07?
Result: yes (1)

Ask: Could you do the same for GGACACCAATGGGTTCTAACCTGTTGCCTAG [GGACACCCTAG_LTGcore_AA_RTGcore_CT] (site GGACACCCTAG) (LTG core: AA, RTG core: CT) , please?
Result: yes (1)

###

experiment: recombinant UMI read abundance after kanamycin selection (control-corrected) (log10(CPM+1)); higher = more efficient recombination; extreme values may be limits of the assay; sequences stand for … in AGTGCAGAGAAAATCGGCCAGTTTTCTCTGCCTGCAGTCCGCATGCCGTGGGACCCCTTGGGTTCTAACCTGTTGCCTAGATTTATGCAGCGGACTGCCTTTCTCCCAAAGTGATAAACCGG…AGGTTGGTTTCACT; site = the 11-nt donor
Assign rule met to entries whose recombinant UMI read abundance (log10) meets or exceeds 0.8; assign rule not met to the rest.

Recorded results for 3 sequences are shown here.
Sequence entry	Answer label
GGCGACCCATGGACCGGTTTTCCCGGTAATCCGTATTTGCC (site GGCGACCCTGG)	rule not met
TCAGCTGCATGGACCGGTTTTCCCGGTAATCCGTATTTGTG (site TTAGCTGCTCA)	rule not met
CCTAATACATGGACCGGTTTTCCCGGTAATCCGTATTTGGG (site CCTAATACTGC)	rule not met

Ask: Hi, just wondering whether CTAACTGCATGGACCGGTTTTCCCGGTAATCCGTATTTGTC (site CTAACTGCTGA) shows recombinant UMI read abundance (log10) of 0.8 or higher.
Result: rule met

Ask: How about ACAGAATCATGGACCGGTTTTCCCGGTAATCCGTATTTGCT (site ACAGAATCTAG) ?
Result: rule met

Ask: Could you do the same for CGTTTCGCATGGACCGGTTTTCCCGGTAATCCGTATTTGCT (site CGTTTCGCTAG) , please?
Result: rule met

Ask: // query: AGCCTTTCATGGACCGGTTTTCCCGGTAATCCGTATTTGGC (site AGCCTTTCTGC)
Result: rule not met

Ask: Record: CGACTATCATGGACCGGTTTTCCCGGTAATCCGTATTTGTG (site CGACTATCTCA)
Result: rule met

Ask: Same read-out for TACCACCCATGGACCGGTTTTCCCGGTAATCCGTATTTGCT (site TACCACCCTAG) ?
Result: rule met
